test-target: Dual specificity protein phosphatase 6 (Rattus norvegicus) (UniProt Q64346)
Sequence (Q64346 whole entry, looked up): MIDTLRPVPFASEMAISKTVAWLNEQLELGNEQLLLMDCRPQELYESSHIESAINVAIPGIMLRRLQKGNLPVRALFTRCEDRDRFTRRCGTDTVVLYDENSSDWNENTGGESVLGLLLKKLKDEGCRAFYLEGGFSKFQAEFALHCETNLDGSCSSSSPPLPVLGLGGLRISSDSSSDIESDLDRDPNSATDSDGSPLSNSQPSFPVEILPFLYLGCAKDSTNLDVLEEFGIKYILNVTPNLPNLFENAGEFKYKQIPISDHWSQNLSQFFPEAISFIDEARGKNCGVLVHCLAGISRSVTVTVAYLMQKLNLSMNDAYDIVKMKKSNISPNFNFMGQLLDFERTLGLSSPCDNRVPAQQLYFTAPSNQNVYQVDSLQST
assay-explanation: inhibition of rat DUSP6 enzyme activity – biochemical, in vitro, primary screen (AID 425);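 note: plate controls were vehicle for no effect and reference inhibitor for full effect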
test-settings: recombinant MKP-3 phosphatase activity, fluorescence; at 20 µM
The whole screen tested about 110,000 compounds, of which about 190 (0.17%) were called active. Cut-off read from the data, not from the text of the source: active = inhibition above about 50%; inactive = the rest. Shown is part of a subset that was picked to be rich in actives. Measured potencies and affinities stand elsewhere.
Labels: 1 (yes) (active), 0 (no) (inactive)

molecule	test-target	classification
Oc1ccc(CC2CC3CCN2CC3)cc1O (stereo unspecified)	Dual specificity protein phosphatase 6 (Rattus norvegicus) (UniProt Q64346)	0 (no)
Cn1cccc1/C=C1/C(=O)NC(=S)N(c2ccc(Cl)cc2)C1=O	Dual specificity protein phosphatase 6 (Rattus norvegicus) (UniProt Q64346)	1 (yes)
C=CCN1C(=O)/C(=C\c2cccn2-c2cccc([N+](=O)[O-])c2)C(=O)NC1=S	Dual specificity protein phosphatase 6 (Rattus norvegicus) (UniProt Q64346)	1 (yes)
O=C1NC(=S)N(c2cccc(Cl)c2)C(=O)/C1=C/c1ccc(Cl)cc1	Dual specificity protein phosphatase 6 (Rattus norvegicus) (UniProt Q64346)	0 (no)
CCN1C(=O)/C(=C/c2ccc(OC)c3ccccc23)C(=O)NC1=S	Dual specificity protein phosphatase 6 (Rattus norvegicus) (UniProt Q64346)	0 (no)
O=[N+]([O-])c1ccc(N2CCNCC2)cc1NCCOc1ccccc1	Dual specificity protein phosphatase 6 (Rattus norvegicus) (UniProt Q64346)	0 (no)
O=C1NC(=O)N(c2ccccc2)C(=O)/C1=C/c1ccoc1	Dual specificity protein phosphatase 6 (Rattus norvegicus) (UniProt Q64346)	0 (no)
CN1C(=O)C(=Cc2cccn2-c2cccc([N+](=O)[O-])c2)C(=O)N(C)C1=O	Dual specificity protein phosphatase 6 (Rattus norvegicus) (UniProt Q64346)	0 (no)
O=C1NC(=S)N(c2ccc(Cl)cc2)C(=O)/C1=C/c1ccc(-c2ccccc2C(=O)O)o1	Dual specificity protein phosphatase 6 (Rattus norvegicus) (UniProt Q64346)	0 (no)
CCN1CCN(c2ccc(C(F)(F)F)cn2)CC1	Dual specificity protein phosphatase 6 (Rattus norvegicus) (UniProt Q64346)	0 (no)
CCN1C(=O)/C(=C/c2ccoc2)C(=O)NC1=S	Dual specificity protein phosphatase 6 (Rattus norvegicus) (UniProt Q64346)	1 (yes)

Sourced from PubChem BioAssay AID425
